# Tested on: Yap1 mRNA
# experimentNotes: Antisense inhibition of human Yap1 in A-431 cells by cEt gapmers, single dose (Example 2, RTS4814)
# Format: cell-based
# conditionNotes: Table 6; A-431 cells, 5,000 cells per well, free uptake, 2,000 nM modified oligonucleotide, approx. 48 hours; RTS4814; normalized to RIBOGREEN; Yap1 mRNA relative to untreated control cells
Strand notation (5' to 3'): a small letter for the sugar, then the base; units joined by * are phosphorothioate-linked, units joined directly phosphodiester-linked; [ ] holds rarer units or linkages, { } end groups; capitals alone tell only the bases. k = constrained ethyl (cEt); [5mC] = 5-methylcytosine; d = 2'-deoxy (DNA)
Reported YAP1 (% UTC) values for a set of substances
measurementName: YAP1 (% UTC)

{"substance": "716477 (kG*kT*kG*dT*dT*d[5mC]*dA*dT*dT*dA*d[5mC]*dA*dA*kA*kT*kG; antisense) [Compound 716477]", "measurementName": "YAP1 (% UTC)", "reportedValue": 42}
{"substance": "716456 (kA*k[5mC]*k[5mC]*dA*d[5mC]*dA*d[5mC]*dT*dA*dT*dT*dA*dT*kA*kA*kA; antisense) [Compound 716456]", "measurementName": "YAP1 (% UTC)", "reportedValue": 96}
{"substance": "716438 (kA*kT*kT*dT*dT*dT*dG*dG*d[5mC]*dT*dT*dG*dT*k[5mC]*kA*kG; antisense) [Compound 716438]", "measurementName": "YAP1 (% UTC)", "reportedValue": 32}
{"substance": "716546 (k[5mC]*kA*k[5mC]*dA*dA*dT*dT*dA*dA*dT*dT*dA*d[5mC]*kT*kG*kT; antisense) [Compound 716546]", "measurementName": "YAP1 (% UTC)", "reportedValue": 103}
{"substance": "716498 (kG*kA*kA*dG*dG*dG*d[5mC]*d[5mC]*dA*dA*dA*dA*dT*kA*k[5mC]*kT; antisense) [Compound 716498]", "measurementName": "YAP1 (% UTC)", "reportedValue": 92}
{"substance": "716483 (k[5mC]*kA*kA*dA*dA*d[5mC]*d[5mC]*dT*dT*dA*dT*dA*dG*kT*kA*kT; antisense) [Compound 716483]", "measurementName": "YAP1 (% UTC)", "reportedValue": 159}
{"substance": "716549 (k[5mC]*k[5mC]*kA*d[5mC]*dT*dT*dT*dT*dG*d[5mC]*dA*dA*dT*kG*kT*kT; antisense) [Compound 716549]", "measurementName": "YAP1 (% UTC)", "reportedValue": 44}
{"substance": "716408 (k[5mC]*kA*k[5mC]*dT*dG*dT*dA*dG*d[5mC]*dT*dG*d[5mC]*dT*k[5mC]*kA*kT; antisense) [Compound 716408]", "measurementName": "YAP1 (% UTC)", "reportedValue": 54}
{"substance": "716495 (kG*kT*kT*dA*dT*dG*dA*dA*d[5mC]*d[5mC]*d[5mC]*dT*dT*kG*kA*kA; antisense) [Compound 716495]", "measurementName": "YAP1 (% UTC)", "reportedValue": 58}
{"substance": "716450 (kA*kA*k[5mC]*dA*dG*dA*dT*dT*d[5mC]*dA*d[5mC]*dT*dA*kA*kT*kA; antisense) [Compound 716450]", "measurementName": "YAP1 (% UTC)", "reportedValue": 83}
